- target or system: chymotrypsin (Bos taurus, UniProt P00766)
- experiment notes: Inhibitory effects on chymotrypsin (hydrolysis of N-acetyl-L-tyrosine ethyl ester)
- Assay type: biochemical
- setup conditions: 37° C., 10 minutes; concentration not given
Structures can show the parent of a compound that is named as a salt.
Use fulfilled when the recorded Inhibition (%) Chymotrypsin is no lower than 50%; use not fulfilled when it is lower.

// below: answered compounds
CCOc1ccccc1OC(=O)[C@H]1CC[C@H](CNC(=N)N)CC1 [Compound 4, hydrochloride]; not fulfilled
CCOC(=O)c1ccccc1OC(=O)[C@H]1CC[C@H](CNC(=N)N)CC1 [Compound 9, hydrochloride]; fulfilled
Cl.N=C(N)NC[C@H]1CC[C@H](C(=O)Oc2ccccc2)CC1 [Compound 3]; not fulfilled
CCOC(=O)CCc1ccc(OC(=O)[C@H]2CC[C@H](CNC(=N)N)CC2)cc1 [Compound 8, hydrochloride]; not fulfilled
N=C(N)NC[C@H]1CC[C@H](C(=O)Oc2ccccc2C(=O)OCc2ccccc2)CC1 [Compound 1, hydrochloride]; fulfilled

For this compound, is measured Inhibition (%) Chymotrypsin 50% or higher? CCOC(=O)c1ccc(OC(=O)[C@H]2CC[C@H](CNC(=N)N)CC2)cc1 [Compound 6, hydrochloride]
fulfilled

Threshold query (Inhibition (%) Chymotrypsin >= 50%) on Cl.NC[C@H]1CC[C@H](C(=O)Oc2ccc(CCC(=O)O)cc2)CC1 [Compound A, reference compound]
not fulfilled

Could you please find out whether Cl.N=C(N)NC[C@H]1CC[C@H](C(=O)Oc2cccnc2)CC1 [Compound 7] has Inhibition (%) Chymotrypsin that meets 50% or exceeds it?
fulfilled

Does the compound COc1cc(C=O)ccc1OC(=O)[C@H]1CC[C@H](CNC(=N)N)CC1 [Compound 2, hydrochloride] have recorded Inhibition (%) Chymotrypsin that is 50% or more?
fulfilled

Please tell me: is the compound N=C(N)NC[C@H]1CC[C@H](C(=O)Oc2ccccc2C(=O)Oc2ccccc2)CC1 [Compound 5, hydrochloride] at or over 50% in terms of Inhibition (%) Chymotrypsin?
fulfilled

---

- target or system: urokinase (Homo sapiens, UniProt P00749)
- experiment notes: Inhibitory effects on urokinase (hydrolysis of N-acetylglycyl lysine methyl ester)
- Assay type: biochemical
- setup conditions: 37° C., 10 minutes; concentration not given
- Description: The compounds of the formula (I) have excellent inhibitory effects on protease. The inhibitory effects were determined by the following methods: Inhibitory effects of the compounds on urokinase were determined according to the method described by A. J. Joeson et al (Throm. […]. 21, 259-272 (1969)). In particular, inhibitory effects of the compounds on hydrolysis of N-acetylglycyl lysine methyl ester by urokinase were determined (incubated at 37° C. for 10 minutes).
Where a name gives a salt, the structure may show the parent alone.
endpoint name: Inhibition (%) Urokinase
Numbers only, in %.

Please give Inhibition (%) Urokinase, item by item, for the list that follows.
1. N=C(N)NC[C@H]1CC[C@H](C(=O)Oc2ccccc2C(=O)OCc2ccccc2)CC1 [Compound 1, hydrochloride]
2. Cl.NC[C@H]1CC[C@H](C(=O)Oc2ccc(CCC(=O)O)cc2)CC1 [Compound A, reference compound]
3. CCOC(=O)CCc1ccc(OC(=O)[C@H]2CC[C@H](CNC(=N)N)CC2)cc1 [Compound 8, hydrochloride]
4. N=C(N)NC[C@H]1CC[C@H](C(=O)Oc2ccccc2C(=O)Oc2ccccc2)CC1 [Compound 5, hydrochloride]
5. CCOc1ccccc1OC(=O)[C@H]1CC[C@H](CNC(=N)N)CC1 [Compound 4, hydrochloride]

[32, 32, 55, 35, 84]

// input: 2 molecules below; output: Inhibition (%) Urokinase for each
1. COc1cc(C=O)ccc1OC(=O)[C@H]1CC[C@H](CNC(=N)N)CC1 [Compound 2, hydrochloride]
2. CCOC(=O)c1ccc(OC(=O)[C@H]2CC[C@H](CNC(=N)N)CC2)cc1 [Compound 6, hydrochloride]

1. 72
2. 50

---

- target or system: thrombin (Bos taurus, UniProt P00735)
- experiment notes: Inhibitory effects on thrombin (hydrolysis of p-tosylarginine methyl ester)
- Type: biochemical
- setup conditions: 37° C., 10 minutes; concentration not given
Structures can show the parent of a compound that is named as a salt.
I'd appreciate it if you could supply Inhibition (%) Thrombin values for the items below.
Answers are plain numbers, in %.

Guide cases for Inhibition (%) Thrombin, answers given:
Cl.N=C(N)NC[C@H]1CC[C@H](C(=O)Oc2cccnc2)CC1; 32
N=C(N)NC[C@H]1CC[C@H](C(=O)Oc2ccccc2C(=O)OCc2ccccc2)CC1 [Compound 1, hydrochloride]; 37
N=C(N)NC[C@H]1CC[C@H](C(=O)Oc2ccccc2C(=O)Oc2ccccc2)CC1 [Compound 5, hydrochloride]; 34
CCOC(=O)c1ccccc1OC(=O)[C@H]1CC[C@H](CNC(=N)N)CC1 [Compound 9, hydrochloride]; 29

Quick batch: Inhibition (%) Thrombin for everything below.
1. Cl.N=C(N)NC[C@H]1CC[C@H](C(=O)Oc2ccccc2)CC1
2. Cl.NC[C@H]1CC[C@H](C(=O)Oc2ccc(CCC(=O)O)cc2)CC1 [Compound A, reference compound]
3. CCOC(=O)CCc1ccc(OC(=O)[C@H]2CC[C@H](CNC(=N)N)CC2)cc1 [Compound 8, hydrochloride]
4. CCOC(=O)c1ccc(OC(=O)[C@H]2CC[C@H](CNC(=N)N)CC2)cc1 [Compound 6, hydrochloride]
5. CCOc1ccccc1OC(=O)[C@H]1CC[C@H](CNC(=N)N)CC1 [Compound 4, hydrochloride]
6. COc1cc(C=O)ccc1OC(=O)[C@H]1CC[C@H](CNC(=N)N)CC1 [Compound 2, hydrochloride]

1. 30
2. 30
3. 43
4. 39
5. 35
6. 51

---

- experiment notes: Acute toxicity
- setup conditions: mouse, in vivo, po, female mice, 7 days observation, read-out: LD50 Female
Structures can show the parent of a compound that is named as a salt.
endpoint name: LD50 at 168 h

Using the record for N=C(N)NC[C@H]1CC[C@H](C(=O)Oc2ccccc2C(=O)OCc2ccccc2)CC1 [Compound 1, hydrochloride] , report its LD50 at 168 h.
> 8000 mg/kg

---

I'd be grateful if you could share measured Inhibition (%) Urokinase for these entries.
- target or system: urokinase (Homo sapiens, UniProt P00749)
- experiment notes: Inhibitory effects on urokinase (hydrolysis of N-acetylglycyl lysine methyl ester)
- Format: biochemical
- setup conditions: 37° C., 10 minutes; concentration not given
Counter-ions that a name gives are not always drawn.
Numbers only, in %.

A selection of reference data follows.
CCOC(=O)c1ccccc1OC(=O)[C@H]1CC[C@H](CNC(=N)N)CC1 [Compound 9, hydrochloride]; 50
Cl.N=C(N)NC[C@H]1CC[C@H](C(=O)Oc2cccnc2)CC1 [Compound 7]; 67

Please examine the following record next.
Look up Inhibition (%) Urokinase for this compound: Cl.N=C(N)NC[C@H]1CC[C@H](C(=O)Oc2ccccc2)CC1 [Compound 3]
52

---

Field: Inhibition (%) Trypsin. Provide a value for each of the compounds that follow.
- target or system: trypsin (Bos taurus)
- Sequence (P00760 24-246): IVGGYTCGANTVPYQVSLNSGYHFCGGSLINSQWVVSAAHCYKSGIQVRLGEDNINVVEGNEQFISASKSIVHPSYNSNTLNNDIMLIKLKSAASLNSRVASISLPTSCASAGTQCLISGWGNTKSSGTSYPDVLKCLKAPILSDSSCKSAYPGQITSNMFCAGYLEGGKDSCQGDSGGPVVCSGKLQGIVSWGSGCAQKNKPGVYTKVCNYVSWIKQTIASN
- experiment notes: Inhibitory effects on trypsin (hydrolysis of p-tosylarginine methyl ester)
- Type: biochemical
- setup conditions: 37° C., 10 minutes; concentration not given
Structures can show the parent of a compound that is named as a salt.
One number for each entry, in %.

COc1cc(C=O)ccc1OC(=O)[C@H]1CC[C@H](CNC(=N)N)CC1 [Compound 2, hydrochloride]; 61
CCOC(=O)c1ccccc1OC(=O)[C@H]1CC[C@H](CNC(=N)N)CC1 [Compound 9, hydrochloride]; 28
CCOc1ccccc1OC(=O)[C@H]1CC[C@H](CNC(=N)N)CC1 [Compound 4, hydrochloride]; 22
N=C(N)NC[C@H]1CC[C@H](C(=O)Oc2ccccc2C(=O)Oc2ccccc2)CC1 [Compound 5, hydrochloride]; 38
CCOC(=O)c1ccc(OC(=O)[C@H]2CC[C@H](CNC(=N)N)CC2)cc1 [Compound 6, hydrochloride]; 25

Could you report Inhibition (%) Trypsin for every entry in the following list?
1. N=C(N)NC[C@H]1CC[C@H](C(=O)Oc2ccccc2C(=O)OCc2ccccc2)CC1 [Compound 1, hydrochloride]
2. CCOC(=O)CCc1ccc(OC(=O)[C@H]2CC[C@H](CNC(=N)N)CC2)cc1 [Compound 8, hydrochloride]
3. Cl.NC[C@H]1CC[C@H](C(=O)Oc2ccc(CCC(=O)O)cc2)CC1 [Compound A, reference compound]
4. Cl.N=C(N)NC[C@H]1CC[C@H](C(=O)Oc2ccccc2)CC1
5. Cl.N=C(N)NC[C@H]1CC[C@H](C(=O)Oc2cccnc2)CC1

79
51
65
42
23
